Tested on: WPMY1-CANX-COX4
assayRemarks: phenotypically active (imaging signature differs from DMSO and reproducible) at any of 0.3-9 uM (binary (1 = active, 0 = inactive)); higher = active
experimentalSetup: treatment time: 24 h
Measured phenotypically active, listed per entry.

CN(C)C(=O)C(CCN1CCC(O)(c2ccc(Cl)cc2)CC1)(c1ccccc1)c1ccccc1 [loperamide]	1 (active)
O=C1CCc2c(ccc3ccccc23)O1	0 (inactive)
CC(C)(C)c1ccc2cc(C#N)c(C#N)cc2c1	0 (inactive)
C/C=C(/C(=C/C)c1ccc(O)cc1)c1ccc(O)cc1	0 (inactive)
C[C@H](Cc1cc2c(c(C(N)=O)c1)N(CCCO)CC2)NCCOc1ccccc1OCC(F)(F)F	0 (inactive)
NS(=O)(=O)c1nn2cc(-c3ccccc3)nc2s1	0 (inactive)
C[C@H]1Oc2cc(cnc2N)-c2c(nn(C)c2C#N)CN(C)C(=O)c2ccc(F)cc21	0 (inactive)
CN1CCC(=C2c3ccccc3CC(=O)c3sccc32)CC1	1 (active)

Briefly, phenotypically active measured for CC(=O)Nc1ccc(C(=O)Nc2ccccc2N)cc1 : 1 (active)

Briefly, phenotypically active measured for N#Cc1c(NC(=O)c2cccc3ccccc23)sc2c1CCCC2 : 1 (active)

Briefly, phenotypically active measured for CN(C)c1ccc(/C=C2\C(=O)Nc3ccccc32)cc1 : 1 (active)

Briefly, phenotypically active measured for CO[C@H]1C=CO[C@@]2(C)Oc3c(C)c(O)c4c(O)c(c5c(nc6cc(C)ccn65)c4c3C2=O)NC(=O)C(C)=CC=C[C@H](C)[C@H](O)[C@@H](C)[C@@H](O)[C@@H](C)[C@H](OC(C)=O)[C@@H]1C : 0 (inactive)

Briefly, phenotypically active measured for COc1cc(N2CCC(N3CCN(C)CC3)CC2)ccc1Nc1ncnc(Nc2ccccc2S(=O)(=O)C(C)C)n1 : 1 (active)
